Source of measurements: patent US20170275287A1

Experiment: A-B permeability, CaCo-2 cells (CEREP)
Format: in vitro ADME
Conditions: human, pH 6.5/7.4
readout_name: Papp A→B (×10⁻⁶ cm/s)
State the answer as a number, implicitly in ×10⁻⁶ cm/s.

Prompt: Item CN1CCN(c2nc(NCCN3CCOCC3)c3nc(Cl)c(NCCN4CCOCC4)nc3n2)CC1 : provide Papp A→B
Completion: 1.2

---

Assay: Toxicokinetics of the 7-day tox study
Format: in vivo, rats
Conditions: female, rat, whole blood, po, 100 mg/kg, Day 7, 100 mg/kg oral, Female
Description: A 7-day non-GLP tox study was performed in rats. […] The following parameters and end points were evaluated in this study: clinical signs, body weights, body weight changes, food consumption, clinical pathology parameters (hematology, coagulation, clinical chemistry, and urinalysis), toxicokinetic parameters, gross necropsy findings, organ weights, and histopathologic examinations. Clinical signs and body weight changes in the TK animals were generally similar to the main toxicology phase animals. […]
readout_name: AUC (ng·h/mL)
State the answer as a number, implicitly in ng·h/mL.

Prompt: Item CN1CCN(c2nc(NCCN3CCOCC3)c3nc(Cl)c(NCCN4CCOCC4)nc3n2)CC1 : provide AUC
Completion: 80200

---

Test: Toxicokinetics of the 7-day tox study
Assay type: in vivo, rats
Conditions: male, rat, whole blood, po, 100 mg/kg, Day 1, 100 mg/kg oral, Male
readout_name: Tmax (h)
State the answer as a number, implicitly in h.

Prompt: Item CN1CCN(c2nc(NCCN3CCOCC3)c3nc(Cl)c(NCCN4CCOCC4)nc3n2)CC1 : provide Tmax
Completion: 3

---

Assay: PK/PD study: whole blood JB6121 after 7 days oral dosing
Type: in vivo, Sprague-Dawley rats
Conditions: Sprague-Dawley, rat, whole blood; 0.39 mg/kg PO daily x7 days, Day 7; read-out: AUC Extrap
readout_name: AUC (ng·h/mL)
State the answer as a number, implicitly in ng·h/mL.

Prompt: Item CN1CCN(c2nc(NCCN3CCOCC3)c3nc(Cl)c(NCCN4CCOCC4)nc3n2)CC1 [JB6121] : provide AUC
Completion: 133

---

Test: PK/PD study: whole blood JB6121 after 7 days oral dosing
Type: in vivo, Sprague-Dawley rats
Conditions: Sprague-Dawley, rat, whole blood; 1.56 mg/kg PO daily x7 days, Day 7, 4 h
readout_name: concentration at 4 h

Prompt: Item CN1CCN(c2nc(NCCN3CCOCC3)c3nc(Cl)c(NCCN4CCOCC4)nc3n2)CC1 [JB6121] : provide concentration at 4 h
Completion: 7.8 ng/mL

---

Test: Toxicokinetics of the 7-day tox study
Assay type: in vivo, rats
Settings: male, rat, whole blood, po, 100 mg/kg, Day 1, 100 mg/kg oral, Male
readout_name: AUC (ng·h/mL)
State the answer as a number, implicitly in ng·h/mL.

Prompt: Item CN1CCN(c2nc(NCCN3CCOCC3)c3nc(Cl)c(NCCN4CCOCC4)nc3n2)CC1 : provide AUC
Completion: 43800

---

Experiment: Toxicokinetics of the 7-day tox study
Assay type: in vivo, rats
Conditions: male, rat, whole blood, po, 10 mg/kg, Day 7, 10 mg/kg oral, Male
readout_name: AUC (µg·h/mL)
State the answer as a number, implicitly in µg·h/mL.

Prompt: Item CN1CCN(c2nc(NCCN3CCOCC3)c3nc(Cl)c(NCCN4CCOCC4)nc3n2)CC1 : provide AUC
Completion: 1.91

---

Experiment: Pharmacokinetic study in rats, IV and PO, whole blood (Charles River)
Format: in vivo, Sprague-Dawley rats
Conditions: male, Sprague-Dawley, rat, whole blood, iv, 2 mg/kg, Rat, IV 2.0 mg/kg; read-out: AUC
readout_name: AUC

Prompt: Item CN1CCN(c2nc(NCCN3CCOCC3)c3nc(Cl)c(NCCN4CCOCC4)nc3n2)CC1 : provide AUC
Completion: 2040 ng·h/mL

---

Experiment: Toxicokinetics of the 7-day tox study
Assay type: in vivo, rats
Details: rat, whole blood, iv; Day 1, 5 mg/kg I.V., Female
readout_name: clearance (mL/min/kg)
State the answer as a number, implicitly in mL/min/kg.

Prompt: Item CN1CCN(c2nc(NCCN3CCOCC3)c3nc(Cl)c(NCCN4CCOCC4)nc3n2)CC1 : provide clearance
Completion: 31.5

---

Test: Toxicokinetics of the 7-day tox study
Type: in vivo, rats
Settings: female, rat, whole blood, po, 100 mg/kg, Day 1, 100 mg/kg oral, Female; read-out: T½ (converted)
readout_name: half-life (min)
State the answer as a number, implicitly in min.

Prompt: Item CN1CCN(c2nc(NCCN3CCOCC3)c3nc(Cl)c(NCCN4CCOCC4)nc3n2)CC1 : provide half-life
Completion: 563

---

Assay: Toxicokinetics of the 7-day tox study
Assay type: in vivo, rats
Conditions: female, rat, whole blood, po, 30 mg/kg, Day 1, 30 mg/kg oral, Female
Protocol: A 7-day non-GLP tox study was performed in rats. […] The following parameters and end points were evaluated in this study: clinical signs, body weights, body weight changes, food consumption, clinical pathology parameters (hematology, coagulation, clinical chemistry, and urinalysis), toxicokinetic parameters, gross necropsy findings, organ weights, and histopathologic examinations. Clinical signs and body weight changes in the TK animals were generally similar to the main toxicology phase animals. […]
readout_name: Tmax (h)
State the answer as a number, implicitly in h.

Prompt: Item CN1CCN(c2nc(NCCN3CCOCC3)c3nc(Cl)c(NCCN4CCOCC4)nc3n2)CC1 [JB6121] : provide Tmax
Completion: 3

---

Test: Toxicokinetics of the 7-day tox study
Assay type: in vivo, rats
Conditions: male, rat, whole blood, iv, 5 mg/kg, Day 1, 5 mg/kg I.V., Male
readout_name: AUC (ng·h/mL)
State the answer as a number, implicitly in ng·h/mL.

Prompt: Item CN1CCN(c2nc(NCCN3CCOCC3)c3nc(Cl)c(NCCN4CCOCC4)nc3n2)CC1 : provide AUC
Completion: 2790

---

Assay: PK/PD study: whole blood JB6121 after 7 days oral dosing
Type: in vivo, Sprague-Dawley rats
Conditions: Sprague-Dawley, rat, whole blood; 0.39 mg/kg PO daily x7 days, Day 7, 3 h
readout_name: concentration at 3 h (ng/mL)
State the answer as a number, implicitly in ng/mL.

Prompt: Item CN1CCN(c2nc(NCCN3CCOCC3)c3nc(Cl)c(NCCN4CCOCC4)nc3n2)CC1 [JB6121] : provide concentration at 3 h
Completion: 3.88

---

Test: PK/PD study: whole blood JB6121 after 7 days oral dosing
Type: in vivo, Sprague-Dawley rats
Settings: Sprague-Dawley, rat, whole blood; 0.39 mg/kg PO daily x7 days, Day 7, 4 h
readout_name: concentration at 4 h (ng/mL)
State the answer as a number, implicitly in ng/mL.

Prompt: Item CN1CCN(c2nc(NCCN3CCOCC3)c3nc(Cl)c(NCCN4CCOCC4)nc3n2)CC1 : provide concentration at 4 h
Completion: 5.57

---

Experiment: Toxicokinetics of the 7-day tox study
Format: in vivo, rats
Conditions: male, rat, whole blood, po, 30 mg/kg, Day 1, 30 mg/kg oral, Male; read-out: T½ (converted)
readout_name: half-life

Prompt: Item CN1CCN(c2nc(NCCN3CCOCC3)c3nc(Cl)c(NCCN4CCOCC4)nc3n2)CC1 : provide half-life
Completion: 9.39 h

---

Target: hERG (Homo sapiens)
Construct: host or cells: CHO (Chinese hamster ovary)
Sequence (Q12809 whole entry): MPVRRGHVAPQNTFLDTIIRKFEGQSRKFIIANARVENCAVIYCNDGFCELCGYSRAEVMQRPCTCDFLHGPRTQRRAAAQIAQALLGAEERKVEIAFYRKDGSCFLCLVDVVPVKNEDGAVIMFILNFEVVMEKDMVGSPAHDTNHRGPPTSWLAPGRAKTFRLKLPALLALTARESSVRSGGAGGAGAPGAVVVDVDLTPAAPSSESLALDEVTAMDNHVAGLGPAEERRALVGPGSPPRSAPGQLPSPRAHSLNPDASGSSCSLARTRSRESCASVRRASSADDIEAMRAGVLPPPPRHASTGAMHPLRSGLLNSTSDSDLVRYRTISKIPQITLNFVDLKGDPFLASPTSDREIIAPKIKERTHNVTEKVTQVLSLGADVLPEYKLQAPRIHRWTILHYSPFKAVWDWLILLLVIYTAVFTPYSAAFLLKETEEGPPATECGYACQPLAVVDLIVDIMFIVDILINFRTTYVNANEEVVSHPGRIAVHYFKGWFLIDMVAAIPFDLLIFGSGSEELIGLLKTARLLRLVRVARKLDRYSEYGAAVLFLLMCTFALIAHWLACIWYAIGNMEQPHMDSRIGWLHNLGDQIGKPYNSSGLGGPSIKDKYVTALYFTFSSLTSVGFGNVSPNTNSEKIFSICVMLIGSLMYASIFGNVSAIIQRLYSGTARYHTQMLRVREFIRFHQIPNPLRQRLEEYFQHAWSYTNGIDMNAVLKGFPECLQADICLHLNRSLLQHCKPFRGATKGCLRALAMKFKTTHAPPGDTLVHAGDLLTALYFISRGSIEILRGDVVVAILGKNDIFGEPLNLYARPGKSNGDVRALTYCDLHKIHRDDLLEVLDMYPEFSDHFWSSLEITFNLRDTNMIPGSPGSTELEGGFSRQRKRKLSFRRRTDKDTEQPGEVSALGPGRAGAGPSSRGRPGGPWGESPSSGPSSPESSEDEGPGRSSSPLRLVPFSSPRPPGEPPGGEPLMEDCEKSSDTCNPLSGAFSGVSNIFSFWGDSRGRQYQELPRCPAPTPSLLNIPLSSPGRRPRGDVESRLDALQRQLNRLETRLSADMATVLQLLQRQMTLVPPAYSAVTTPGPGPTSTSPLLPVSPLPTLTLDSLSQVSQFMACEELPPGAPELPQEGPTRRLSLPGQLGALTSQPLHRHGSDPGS
Test: hERG patch clamp assay (automated, CHO-hERG cells)
Type: cell-based
Details: Cyprotec; concentration range tested 0.0096-30 μM
pIC50: −log10 of the molar value.
readout_name: pIC50

Prompt: Check hERG (Homo sapiens) data and give pIC50 for CN1CCN(c2nc(NCCN3CCOCC3)c3nc(Cl)c(NCCN4CCOCC4)nc3n2)CC1 [JB6121] .
Completion: < 4.52

---

Test: Toxicokinetics of the 7-day tox study
Assay type: in vivo, rats
Settings: female, rat, whole blood, po, 30 mg/kg, Day 7, 30 mg/kg oral, Female
readout_name: AUC (ng·h/mL)
State the answer as a number, implicitly in ng·h/mL.

Prompt: Item CN1CCN(c2nc(NCCN3CCOCC3)c3nc(Cl)c(NCCN4CCOCC4)nc3n2)CC1 [JB6121] : provide AUC
Completion: 8890

---

Experiment: Toxicokinetics of the 7-day tox study
Assay type: in vivo, rats
Settings: male, rat, whole blood, po, 30 mg/kg, Day 1, 30 mg/kg oral, Male
readout_name: Cmax (ng/mL)
State the answer as a number, implicitly in ng/mL.

Prompt: Item CN1CCN(c2nc(NCCN3CCOCC3)c3nc(Cl)c(NCCN4CCOCC4)nc3n2)CC1 : provide Cmax
Completion: 582

---

Assay: Toxicokinetics of the 7-day tox study
Type: in vivo, rats
Conditions: female, rat, whole blood, po, 100 mg/kg, Day 7, 100 mg/kg oral, Female
readout_name: Cmax (ng/mL)
State the answer as a number, implicitly in ng/mL.

Prompt: Item CN1CCN(c2nc(NCCN3CCOCC3)c3nc(Cl)c(NCCN4CCOCC4)nc3n2)CC1 : provide Cmax
Completion: 5310
